Values were extracted from the MegaScale stability set (Tsuboyama et al. 2023).

B1: EEHEE_rd3_0130 (parent)
chain: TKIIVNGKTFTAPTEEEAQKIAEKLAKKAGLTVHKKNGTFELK

Variants of: B1
Assay: folding stability dG (cDNA display proteolysis); higher = more stable
Settings: PBS, room temperature
measured property: folding stability dG

1. V33R; -0.007 kcal/mol
2. K8T; 0.475 kcal/mol
3. K36N; 1.03 kcal/mol
4. A26V; -0.292 kcal/mol
5. L31N; -0.814 kcal/mol
6. F40G; -0.038 kcal/mol
7. T32K; 0.69 kcal/mol
8. T11N; 0.328 kcal/mol
9. P13S; 0.761 kcal/mol
10. K28S; 0.779 kcal/mol
11. K8D; -0.391 kcal/mol
12. G38S; -0.804 kcal/mol
13. G38M; -0.52 kcal/mol
14. P13E; 0.598 kcal/mol
15. V5N; -0.497 kcal/mol
16. E16N; 0.47 kcal/mol
17. K27P; -0.957 kcal/mol
18. K20I; 0.836 kcal/mol
19. K24Q; 0.873 kcal/mol
20. E15W; 0.965 kcal/mol
21. K24F; 1.47 kcal/mol
22. T14N; 0.897 kcal/mol
23. K28F; 0.971 kcal/mol
24. G7S; -0.025 kcal/mol
25. K27T; 0.52 kcal/mol
26. A18R; -0.569 kcal/mol
27. N6S; 0.36 kcal/mol
28. K2L; 0.93 kcal/mol
29. K28N; 0.582 kcal/mol
30. T14C; 0.682 kcal/mol
31. V33Y; 0.251 kcal/mol
32. E16T; 0.649 kcal/mol
33. I3H; -0.416 kcal/mol
34. K24G; 0.617 kcal/mol
35. A29P; -0.744 kcal/mol
36. A26R; -0.166 kcal/mol
37. N37I; -0.193 kcal/mol
38. V33K; -0.149 kcal/mol
39. L25H; -0.294 kcal/mol
40. I3W; -0.228 kcal/mol
41. V33E; -0.529 kcal/mol
42. G7D; -0.326 kcal/mol
43. P13W; 0.532 kcal/mol
44. K28E; 0.862 kcal/mol
45. A18L; -0.286 kcal/mol
46. Q19C; 1.25 kcal/mol
47. K43T; 1.07 kcal/mol
48. N37A; 0.339 kcal/mol
49. K27F; 0.736 kcal/mol
50. K28Y; 1.06 kcal/mol
51. G7L; -0.186 kcal/mol
52. P13M; 0.526 kcal/mol
53. K24W; 1.78 kcal/mol
54. E16C; 0.888 kcal/mol
55. K27E; 0.532 kcal/mol
56. L31A; -0.168 kcal/mol
57. K27R; 0.991 kcal/mol
58. T32V; 1.02 kcal/mol
59. T1N; 0.378 kcal/mol
60. E16D; 0.611 kcal/mol
61. T11S; 0.624 kcal/mol
62. T9S; 0.461 kcal/mol
63. V5H; 0.397 kcal/mol
64. T39H; 1.33 kcal/mol
65. A22Q; -0.657 kcal/mol
66. G7P; -0.749 kcal/mol
67. K43L; 1.18 kcal/mol
68. I21H; -0.132 kcal/mol
69. G30P; -0.624 kcal/mol
70. H34F; 0.97 kcal/mol
71. H34Q; 0.444 kcal/mol
72. V5A; 0.171 kcal/mol
73. A18D; -0.679 kcal/mol
74. T39E; 0.778 kcal/mol
75. K35N; 0.482 kcal/mol
76. A12N; -0.407 kcal/mol
77. I4A; -0.213 kcal/mol
78. T9N; -0.378 kcal/mol
79. K20L; 0.783 kcal/mol
80. K8Q; 0.67 kcal/mol
81. A26W; -0.138 kcal/mol
82. I3P; -0.552 kcal/mol
83. T1A; 0.581 kcal/mol
84. L25A; -0.68 kcal/mol
85. K35I; 0.718 kcal/mol
86. V5P; -0.548 kcal/mol
